These data points were gathered from paper PMC8424629.

Type: binding
Method: All peptides ([…]-COOH, […]-COOH, […] were purchased from KareBay Biochem (USA) (certified purity: 98 %) and were used as received. […] Stability constants for proton, Zn(II) and Cu(II) complexes were calculated from pH -metric titration curves carried out over the pH range 2-11 at T = 298 K in water solution of 4 mM HClO 4 and ionic strength 40 mM (SDS), using a total volume of 3 ml. […]
Where no end group is shown, it is not given here.
readout: pKa, line ZnH2L

H-AFKLLGRIIHHVGNFVYGFSHVF-OH [Clavanin D] :: 8.22

Please fill in: pKa, line ZnH2L reported for VFQFLGRIIHHVGNFVHGFSHVF [Clavanin B] = 7.37

Please fill in: pKa, line ZnH2L reported for H-VFQFLGKIIHHVGNFVHGFSHVF-OH [Clavanin A] = 7.15

Please fill in: pKa, line ZnH2L reported for H-LFKLLGKIIHHVGNFVHGFSHVF-OH [Clavanin E] = 7.18
